# protocol details: Drug level in iv dosed rat assessed as excreted compound in urine
# Format: ADME, organism-based
# recorded conditions: read-out: Drug uptake

structure smiles string	units	dose excreted
C/C(=C\COP(=O)(O)OP(=O)(O)O)CO	%	50

----------
# EC50 per record follows
# protocol details: Agonist activity at human Vgamma9Vdelta2 receptor expressed in T cells assessed as stimulation of TNFalpha release by ELISA
# Assay type: functional, cell-based
# recorded conditions: T-cell

compound	EC50
C/C(=C/CO)CCP(=O)(O)O	> 100000 nM
C/C(=C\COP(=O)(O)OP(=O)(O)O)CO	0.39 nM
C/C(=C/CO)COP(=O)(O)OP(=O)(O)O	> 100000 nM
C/C(=C/CO)CCP(=O)(O)OP(=O)(O)O	> 100000 nM
C/C(=C\CO)COP(=O)(O)OP(=O)(O)O	93.5 nM
CC(O)(CBr)CCOP(=O)(O)OP(=O)(O)O (configuration not stated) [BROMOHYDRIN PYROPHOSPHATE]	23.9 nM
C/C(=C/COP(=O)(O)OP(=O)(O)O)CO	252 nM

Origin of measurements: ChEMBL document CHEMBL1142304
